Answer each item with its documented Minimum concentration for killing 50% protozoa (sporozoites) (ppm).
System: Eimeria acervulina
procedure-details: Protozoan (sporozoite) direct killing effect
Format: cell-based
test-conditions: tested 1 to 500 ppm, vs PBS control

Below, each entry is followed by its recorded Minimum concentration for killing 50% protozoa (sporozoites) (ppm) result.
compound=O=C(O)c1cc(O)c(O)c(O)c1 measured_value=">500 ppm"
compound="CC[C@@H](C(=O)[C@@H](C)[C@@H](O)[C@H](C)[C@@H]1O[C@@H]([C@@H](CC)C(=O)O)CC[C@@H]1C)[C@H]1O[C@]2(C=C[C@@H](O)[C@]3(CC[C@@](C)([C@H]4CC[C@](O)(CC)[C@H](C)O4)O3)O2)[C@H](C)C[C@@H]1C [Salinomycin, salinomycin, reference compound]" measured_value="250 ppm"
compound=O=C1N=c2ccccc2=C1c1cc(-c2c[nH]c3ccc(O)cc23)[nH]c1O measured_value="3.9 ppm"

Could you now look at the following compound, please?
Req: Give me measured Minimum concentration for killing 50% protozoa (sporozoites) (ppm), please, for this compound: N#CC(c1ccc(Cl)cc1)c1c(Cl)cc(-n2ncc(=O)[nH]c2=O)cc1Cl (stereo not shown) [Diclazuril, diclazuril, reference compound]
Resp: 500 ppm

Numbers sourced from patent US12721835B2.
